ASSAY SYSTEM: UniProtKB P27487
Sequence (P27487 whole entry): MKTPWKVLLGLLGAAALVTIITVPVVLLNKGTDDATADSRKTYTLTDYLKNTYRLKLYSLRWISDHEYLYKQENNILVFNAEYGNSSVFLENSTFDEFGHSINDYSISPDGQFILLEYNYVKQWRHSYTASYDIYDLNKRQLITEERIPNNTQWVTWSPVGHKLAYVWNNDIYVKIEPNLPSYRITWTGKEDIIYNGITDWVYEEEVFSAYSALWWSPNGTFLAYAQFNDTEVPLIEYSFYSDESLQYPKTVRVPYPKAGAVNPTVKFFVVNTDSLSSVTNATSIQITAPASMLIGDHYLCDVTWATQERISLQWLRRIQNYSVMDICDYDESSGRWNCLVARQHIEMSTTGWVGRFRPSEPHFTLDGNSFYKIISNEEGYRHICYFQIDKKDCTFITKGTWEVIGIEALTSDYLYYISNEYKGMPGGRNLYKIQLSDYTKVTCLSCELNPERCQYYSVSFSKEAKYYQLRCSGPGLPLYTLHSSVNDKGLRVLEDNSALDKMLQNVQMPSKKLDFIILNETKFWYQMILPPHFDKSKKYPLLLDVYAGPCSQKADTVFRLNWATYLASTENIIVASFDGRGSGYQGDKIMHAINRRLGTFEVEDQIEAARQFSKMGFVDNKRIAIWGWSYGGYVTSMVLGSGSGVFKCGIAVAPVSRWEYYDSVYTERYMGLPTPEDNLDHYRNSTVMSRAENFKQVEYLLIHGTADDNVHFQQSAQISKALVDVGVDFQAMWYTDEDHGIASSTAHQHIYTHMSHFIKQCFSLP
Overview of reported IC50 across a group of compounds:
Please state the figure in µM; there is no need to write the unit.

If you can, please state the reported IC50 value of `C[C@@H](c1nc(-c2ccc(S(C)(=O)=O)cc2Cl)no1)[C@H](N)Cc1cc(F)c(F)cc1F` .
0.046

Proceeding to the next compound to report its IC50.
Given the entry `N[C@@H](CC(=O)N1CCC[C@H]1CO)C(=O)N1CC[C@H](F)C1` , report its measured IC50.
9.2

###

MEASUREMENT NOTES: Clearance in rat plasma at 1 mg/kg, iv and 2 mg/kg, po
Assay type: ADME, organism-based
QUANTITY: clearance (mL/min/kg)
// note: answer is a bare numeric in mL/min/kg

Would you mind telling me what clearance value was observed for `NC(=O)c1cccc(-c2ccc([C@H](N)Cc3cc(F)ccc3F)cc2)c1` ?
13

###

MEASUREMENT NOTES: Oral bioavailability in rat at 2 mg/kg
Type: ADME, organism-based
MEASUREMENT SETUP: in vivo
QUANTITY: bioavailability (%)
Lab book: enter the figure in %, no units written.

Reported bioavailability for `NC(=O)c1cccc(-c2ccc([C@H](N)Cc3cc(F)ccc3F)cc2)c1` : what is it?
130
